# Study Target: human LPAR1 (Homo sapiens, UniProt Q92633)
# Sequence (Q92633 whole entry): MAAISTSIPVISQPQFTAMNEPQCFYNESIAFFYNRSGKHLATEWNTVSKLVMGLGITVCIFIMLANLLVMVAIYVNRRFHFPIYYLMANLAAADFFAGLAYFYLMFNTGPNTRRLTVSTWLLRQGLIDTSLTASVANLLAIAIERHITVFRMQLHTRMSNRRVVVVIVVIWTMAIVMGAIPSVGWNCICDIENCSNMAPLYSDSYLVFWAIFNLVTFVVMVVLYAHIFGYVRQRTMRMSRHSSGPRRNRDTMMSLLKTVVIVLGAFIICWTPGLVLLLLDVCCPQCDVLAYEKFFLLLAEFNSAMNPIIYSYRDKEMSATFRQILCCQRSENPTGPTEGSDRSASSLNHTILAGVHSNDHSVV
# Assay Name: In vitro functional assay of lysophosphatidic acid receptor 1 activity (calcium flux)
# Format: cell-based
# Measurement Conditions: B103 cells stably expressing human LPAR1; calcium flux (Fluo-4 NW) after lysophosphatidic acid (18:1) at EC80; 100 pM to 10 μM; read-out: LPAR1 IC50

{"columns": ["Molecule", "IC50"],
 "data": [
  ["Cc1ccc(NC(=O)N(c2ccccc2C(C)C)[C@H]2CC[C@H](c3cccnc3)CC2)c(OC(F)F)n1", "100 to 1000 nM"],
  ["Cc1cc(OC(F)F)c(NC(=O)N(c2ccccc2C(C)C)[C@H]2C[C@@H](CC(=O)O)C2)cn1", "10 to 100 nM"],
  ["Cc1ccc(NC(=O)N(c2ccccc2C(C)C)[C@H]2CC[C@H](C(=O)O)C2)c(OC(F)F)n1", "< 10 nM"],
  ["COc1ccc(NC(=O)N(c2ccccc2C(C)C)C2CCN(C)C(=O)C2)c(OC(F)F)n1 (stereo not shown)", "10 to 100 nM"]
]}

----------
Recorded IC50 for the following compounds
# Study Target: human LPAR1 (Homo sapiens)
# Assay Name: In vitro functional assay of lysophosphatidic acid receptor 1 activity (calcium flux)
# Type: cell-based
# Measurement Conditions: B103 cells stably expressing human LPAR1; calcium flux (Fluo-4 NW) after lysophosphatidic acid (18:1) at EC80; 100 pM to 10 μM; read-out: LPAR1 IC50

{"columns": ["Compound", "IC50"],
 "data": [
  ["Cc1ccc(NC(=O)N(c2ccccc2C(C)C)C2CC(CC(=O)O)C2)c(OC(F)F)n1 (stereo not drawn) [Example 160]", "< 0.01 µM"],
  ["CC(C)c1ccccc1N(C(=O)Nc1ccc(O)nc1OC(F)F)[C@H]1CC[C@H](C(=O)O)CC1 [Example 320]", "0.01 to 0.1 µM"],
  ["Cc1ccc(NC(=O)N(c2ccccc2C(C)C)[C@@H]2CC[C@@H](C(=O)O)C2)c(OC(F)F)n1 [Example 303]", "< 0.01 µM"],
  ["Cc1cc(OC(F)F)c(NC(=O)N(c2ccccc2C(C)C)[C@H]2CC[C@H](C(=O)O)CC2)cn1 [Example 157]", "0.01 to 0.1 µM"],
  ["Cc1ccc(NC(=O)N(c2ccccc2C(C)C)[C@H]2C[C@H](C(=O)O)C2)c(OC(F)F)n1 [Example 161]", "0.01 to 0.1 µM"],
  ["CC(C)c1ccccc1N(C(=O)Nc1ccc(Cl)c(F)c1)[C@H]1CC[C@H](C(=O)O)CC1 [Example 158]", "0.01 to 0.1 µM"],
  ["CC(=O)N[C@H]1CC[C@H](N(C(=O)Nc2ccc(C)nc2OC(F)F)c2ccccc2C(C)C)CC1 [Example 267]", "0.01 to 0.1 µM"],
  ["COCc1ccc(NC(=O)N(c2ccccc2C(C)C)[C@H]2CC[C@H](C(=O)O)CC2)c(OCC(F)F)n1 [Example 318]", "0.1 to 1 µM"],
  ["Cc1ccc(NC(=O)N(c2ccccc2C(C)C)[C@H]2CC[C@@H](CC(=O)O)CC2)c(OC(F)F)n1 [Example 166]", "0.01 to 0.1 µM"],
  ["CC(=O)N(C(C)=O)[C@H]1CC[C@H](N(C(=O)Nc2ccc(C)nc2OC(F)F)c2ccccc2C(C)C)CC1 [Example 265]", "> 1 µM"],
  ["Cc1ccc(NC(=O)N(C[C@H]2CCN2C(=O)OC(C)(C)C)c2ccccc2C(C)C)c(OC(F)F)n1 [Example 11]", "> 1 µM"],
  ["[2H]C([2H])([2H])Oc1cc(C(F)F)ncc1NC(=O)N(c1ccccc1C(C)C)[C@H]1CC[C@H](C(=O)O)CC1 [Example 296]", "0.1 to 1 µM"],
  ["Cc1ccc(NC(=O)N(CC2CS(=O)(=O)C2)c2ccccc2C(C)C)c(OC(F)F)n1 [Example 19]", "0.1 to 1 µM"],
  ["Cc1ccc(NC(=O)N(c2ccccc2C(C)C)C2CC(NS(C)(=O)=O)C2)c(OC(F)F)n1 (stereo not drawn) [Example 272]", "0.01 to 0.1 µM"],
  ["COc1ccc(NC(=O)N(c2ccccc2C(C)C)[C@H]2CC[C@H](C(=O)O)CC2)c(OCc2ccccc2)n1 [Example 253]", "0.01 to 0.1 µM"]
]}

----------
# Study Target: human LPAR1 (Homo sapiens)
# Assay Name: In vitro functional assay of lysophosphatidic acid receptor 1 activity (calcium flux)
# Type: cell-based
# Measurement Conditions: B103 cells stably expressing human LPAR1; calcium flux (Fluo-4 NW) after lysophosphatidic acid (18:1) at EC80; 100 pM to 10 μM; read-out: LPAR1 IC50
pIC50: −log10 of the molar value.
Let's look at some molecules and their measured pIC50.
Measured Parameter: pIC50

{"columns": ["Molecule", "Study Target", "Measured Parameter", "Value Reported"],
 "data": [
  ["Cc1ccc(NC(=O)N(c2ccccc2C(C)C)C2CC3(C2)CN(S(N)(=O)=O)C3)c(OC(F)F)c1", "human LPAR1 (Homo sapiens)", "pIC50", "7.00 to 8.00"],
  ["Cc1ccc(NC(=O)N(c2ccccc2C(C)C)C2CC2)c(OC(F)F)n1", "human LPAR1 (Homo sapiens)", "pIC50", "< 6.00"],
  ["Cc1ccc(NC(=O)N(c2ccccc2C(C)C)C2CCC(NS(C)(=O)=O)CC2)c(OC(F)F)n1 (stereo not drawn)", "human LPAR1 (Homo sapiens)", "pIC50", "7.00 to 8.00"],
  ["COc1ccc(NC(=O)N(c2ccccc2C(C)C)[C@H]2CC[C@@H](OC)CC2)c(OC(F)F)n1", "human LPAR1 (Homo sapiens)", "pIC50", "6.00 to 7.00"],
  ["COC(=O)CC1CC(N(C(=O)Nc2ccc(C)nc2OC(F)F)c2ccccc2C(C)C)C1 (stereo not drawn)", "human LPAR1 (Homo sapiens)", "pIC50", "6.00 to 7.00"],
  ["COc1ccc(NC(=O)N(c2ccccc2C2CC2)[C@H]2CC[C@@H](C(=O)O)CC2)c(OC(F)F)n1", "human LPAR1 (Homo sapiens)", "pIC50", "6.00 to 7.00"]
]}

----------
# Study Target: human LPAR1 (Homo sapiens, UniProt Q92633)
# Assay Name: In vitro functional assay of lysophosphatidic acid receptor 1 activity (calcium flux)
# Type: cell-based
# Measurement Conditions: B103 cells stably expressing human LPAR1; calcium flux (Fluo-4 NW) after lysophosphatidic acid (18:1) at EC80; 100 pM to 10 μM; read-out: LPAR1 IC50
pIC50: −log10 of the molar value.
Some molecules, each annotated with its measured pIC50.
Measured Parameter: pIC50

{"columns": ["Molecule", "Value Reported"],
 "data": [
  ["Cc1ccc(NC(=O)N(c2ccccc2C(C)C)[C@H]2CCN(S(C)(=O)=O)C2)c(OC(F)F)n1 [Example 75]", "7.00 to 8.00"],
  ["COc1ccc(NC(=O)N(c2ccccc2C(C)C)[C@H]2CC[C@H](c3cc(O)no3)CC2)c(OC(F)F)n1 [Example 283]", "7.00 to 8.00"],
  ["Cc1ccc(NC(=O)N(c2ccccc2C(C)C)C2CCC3(CC2)COC3)c(OC(F)F)n1 [Example 236]", "6.00 to 7.00"]
]}

----------
# Study Target: UniProtKB Q92633
# Assay Name: In vitro functional assay of lysophosphatidic acid receptor 1 activity (calcium flux)
# Type: cell-based
# Measurement Conditions: B103 cells stably expressing human LPAR1; calcium flux (Fluo-4 NW) after lysophosphatidic acid (18:1) at EC80; 100 pM to 10 μM; read-out: LPAR1 IC50
pIC50: −log10 of the molar value.
Measured Parameter: pIC50

{"columns": ["Compound", "Value Reported"],
 "data": [
  ["Cc1nc(OC(F)F)c(NC(=O)N(c2ccccc2C(C)C)[C@H]2CC[C@H](C(=O)O)CC2)cc1F", "> 8.00"],
  ["Cc1ccc(NC(=O)N(c2ccccc2C(C)C)[C@H]2C[C@H](C(N)=O)C2)c(OC(F)F)n1", "< 6.00"],
  ["Cc1ccc(NC(=O)N(c2ccccc2C(C)C)[C@H]2C[C@@H](CC(N)=O)C2)c(OC(F)F)n1", "6.00 to 7.00"],
  ["Cc1ccc(NC(=O)N(c2ccccc2C(C)C)[C@H]2C[C@H](C#N)C2)c(OC(F)F)n1", "6.00 to 7.00"],
  ["COc1ccc(NC(=O)N(c2ccccc2C(C)C)C2CC3(CC(C(=O)O)C3)C2)c(OC(F)F)n1 (centres unmarked)", "7.00 to 8.00"],
  ["CC(=O)N1CC2(CC(N(C(=O)Nc3ncc(Cl)cc3OC(F)F)c3ccccc3C(C)C)C2)C1", "6.00 to 7.00"],
  ["CC(C)c1ccccc1N(C(=O)Nc1cc(F)c(F)cc1OC(F)F)[C@H]1C[C@@H](CC(=O)O)C1", "> 8.00"],
  ["COc1ccc(NC(=O)N(c2ccccc2C(C)C)[C@H]2CC[C@H](OC)CC2)c(OC(F)F)n1", "7.00 to 8.00"],
  ["Cc1ccc(NC(=O)N(c2ccccc2C(C)C)C2CC(=O)C2)c(OC(F)F)n1", "7.00 to 8.00"],
  ["Cc1ccc(NC(=O)N(c2ccccc2C(C)C)[C@H]2C[C@H](OCc3ccccc3)C2)c(OC(F)F)n1", "6.00 to 7.00"],
  ["Cc1ccc(NC(=O)N(c2ccccc2C(C)C)C2CC3(CC(C(=O)O)C3)C2)c(OC(F)F)n1 (centres unmarked)", "7.00 to 8.00"]
]}
